The entries below come with measured GI50 values attached.
Tested on: HT-29
assayProcedure: NCI tumour cell line growth inhibition, 48 h
The source made the active and inactive calls. Rule as the data show it: active = GI50 up to about 1.1 µM and inactive = higher.
reportedMetric: GI50

* COc1ccc(CN2C(=O)C(Cc3cc(OC)c(OC)c(C)c3OC)N(C(=O)OC(C)C)C(=O)/C2=C/c2cc(OC)c(OC)c(C)c2OC)cc1 (stereo not drawn) | > 100 µM (inactive)
* N#Cc1cc2c(cc1C#N)/C(=N\c1cccc(N)n1)N/C2=N\c1cccc(N)n1 | 23.1 µM (inactive)
* CC1(C)Oc2ccccc2[N+]([O-])=C1c1ccccc1 | > 100 µM (inactive)
* NC12CC3CC(C1)CC(C(=O)O)(C3)C2 | > 100 µM (inactive)
* c1ccc(C[n+]2ccc3c(c2)CCCC3)cc1 | 50.9 µM (inactive)
* Cc1ccc(S(=O)(=O)N2CCCN(S(=O)(=O)c3ccc(C)cc3)CCN(S(=O)(=O)c3ccc(C)cc3)CCCSCC2)cc1 | > 100 µM (inactive)
* Nc1nc(Nc2ccc(Cl)cc2)sc1C(=O)c1c[nH]c2ccccc12 | 6.78 µM (inactive)
* Cc1nc(Nc2ccc(Cl)cc2)sc1C(=O)Nc1cccc2c(=O)[nH][nH]c(=O)c12 | 16.8 µM (inactive)
* N#CC(NCc1cccc(CNC(C#N)c2ccccc2)c1)c1ccccc1 (stereo not drawn) | 16.4 µM (inactive)
* Cc1cc(S(=O)(=O)N/C(=N/N)NCCc2ccccc2)c(S)cc1Cl | 31.6 µM (inactive)
* O=C1C2=C(c3ccccc31)C(c1ccc(Cl)cc1)NC(S)=N2 (stereo not drawn) | 33.8 µM (inactive)
* Cc1cc(Cl)ccc1NC(=O)C(=O)C(C(=O)c1ccccc1)C1OC(=O)c2ccccc21 (stereo not drawn) | > 100 µM (inactive)
* O=C1CCC2(CCC(=O)NC2=O)C(=O)N1 | > 100 µM (inactive)

* * *

The entries below come with measured GI50 values attached.
Tested on: UACC-257
assayProcedure: NCI tumour cell line growth inhibition, 48 h
Calls of active or inactive are those of the source. Cut-off read from the data, not from the text of the source: active = GI50 up to about 1.1 µM and inactive = higher.
reportedMetric: GI50

- O=C1CCC2(c3ccc(F)cc3)Nc3ncncc3N12 (centres undefined): > 10 µM (inactive)
- COc1ccc(/C=N/NC(=O)NCCCN(C)C)cc1: > 100 µM (inactive)
- COC(=O)c1c(-c2ccccc2)c2sc3ccccc3n2c1N: > 100 µM (inactive)
- c1ccc2c(c1)CC1=C(O2)c2ccccc2OC1: 28.2 µM (inactive)
- N=c1c2sc3nc4ccccc4n3c2ncn1Cc1ccccc1: > 100 µM (inactive)
- COC(=O)CCSC1=CC(=O)c2nc3ccccc3c3ccnc1c23: 17.2 µM (inactive)
- COC(=O)c1ccccc1/C=C1\Cc2ccc3c(c2C1=O)CCC3: > 100 µM (inactive)
- CN1C(=O)C(=CNc2ccc(Cl)cc2Cl)C(=O)N(C)C1=O: > 100 µM (inactive)
- CCOC(=O)c1[nH]c2nc(SC)nc(Nc3ccccc3Cl)c2c1N: 33.6 µM (inactive)
- O=C1NC2(O)c3ccccc3C(=O)C2(O)N1c1ccccc1 (centres undefined): > 100 µM (inactive)
- CCOP(=O)(C/C(=N/NC(C)(C)C)C(=O)Nc1nc2ccc(C)cc2s1)OCC: > 100 µM (inactive)
- COc1ccc(-c2cs/c(=N\c3ccccc3)n2CC(O)c2ccc([N+](=O)[O-])cc2)cc1 (centres undefined): > 76.9 µM (inactive)
- Cc1sc(N)c(S(=O)(=O)c2ccccc2)c1C: > 100 µM (inactive)
- CCOC(=O)C1=C(OC(OCC)C([Se]c2ccccc2)C(C)C)CCC1 (centres undefined): 23.2 µM (inactive)

* * *

Test system: RPMI-8226
assayProcedure: NCI tumour cell line growth inhibition, 48 h
The source made the active and inactive calls. Rule as the data show it: active = GI50 up to about 1.1 µM and inactive = higher.
reportedMetric: GI50

• O=C1CSC(c2cccc(Cl)c2)N1c1ccc(-c2ccc(-n3c(-c4ccccc4)nc4ccccc4c3=O)cc2)cc1 (configuration not stated) = 42.8 µM (inactive)
• COc1ccc(C23C(=O)c4ccccc4N2O[C@H]2C(=O)N(c4ccccc4)C(=O)[C@H]23)cc1 (some centres not stated) = > 100 µM (inactive)
• O=C(CC(C(=O)c1ccsc1)c1ccsc1)c1ccsc1 (configuration not stated) = 33.5 µM (inactive)
• Cn1c2ccccc2c2c3c(c4c5ccccc5n(C)c4c21)C(=O)N(Cc1ccccc1)C3=O = > 100 µM (inactive)
• CC1=CCC[C@@H]2[C@@](C)(Cc3cc(O)ccc3O)[C@H](C)CC[C@@]12C = 3.44 µM (inactive)
• Cn1c(=O)c2c(nc3n(Cc4ccccc4)c(=O)c(Br)cn23)n(C)c1=O = > 100 µM (inactive)
• Nc1nc(Cl)cc(NCCCCCCCCCCCCNc2cc(Cl)nc(N)n2)n1 = > 100 µM (inactive)

* * *

System: NCI-H226
assayProcedure: NCI tumour cell line growth inhibition, 48 h
Active and inactive are the calls of the source. Cut-off read from the data, not from the text of the source: active = GI50 up to about 1.1 µM and inactive = higher.
reportedMetric: GI50

- COC(=O)[C@@H]1Cc2c([nH]c3ccccc23)[C@H](c2ccccc2)N1: 71.8 µM (inactive)
- COC(=O)C1=C(C(=O)OC)C(N(C)C)C(C(=O)OC)=C(C(=O)OC)S1: > 100 µM (inactive)
- CC/C(Cl)=N\OC(=O)Nc1ccccc1OC(F)(F)F: 19.1 µM (inactive)
- Cc1nc(Nc2ccc(Cl)cc2)sc1C(=O)Nc1cccc2c(=O)[nH][nH]c(=O)c12: 83.6 µM (inactive)
- CCOC(=O)c1c(C)noc1/N=N/N(CCO)CCO: 23.6 µM (inactive)
- O=S(=O)(C/C(=N\O)c1ccccc1)c1ccccc1: > 100 µM (inactive)
- C=CCCC1CCCNC1=S (stereo not drawn): > 100 µM (inactive)
- CC1=C(C(=O)Nc2ccc([N+](=O)[O-])cc2)C(c2ccccc2F)C(C(=O)Nc2ccc([N+](=O)[O-])cc2)=C(C)N1: 14 µM (inactive)
- C1CCCN(NC2=NCCO2)CC1: > 100 µM (inactive)
- O=C(/C=C(\O)c1cc(-c2ccccc2)n(-c2ccccc2)n1)c1ccccc1: 3.38 µM (inactive)
- CC(C)c1cc(C(F)(F)F)nc(NNc2nc(C(C)C)cc(C(F)(F)F)n2)n1: > 100 µM (inactive)
- CCCCCN(CCCCC)CC(C)(C)C(O)c1ccc(OC)c2ccccc12 (stereo not drawn): 16.9 µM (inactive)
- Cn1c2ccccc2c2c3c(c4c5ccccc5n(C)c4c21)C(=O)N(Cc1ccccc1)C3=O: > 100 µM (inactive)
- CCCOc1cc2c(cc1O)CC[C@@H]1[C@@H]2CC[C@]2(C)[C@@H](O)CC[C@@H]12: 5.97 µM (inactive)
- Cc1cc(N)ccc1/N=N\c1ccc(S(=O)(=O)CCOS(=O)(=O)O)cc1: 3.37 µM (inactive)
- Cc1cc(Cl)ccc1NC(=O)C(=O)C(C(=O)c1ccccc1)C1OC(=O)c2ccccc21 (stereo not drawn): > 100 µM (inactive)
- O=C1CCCCCCCCCCC1CN1CCCC1 (stereo not drawn): 15.4 µM (inactive)
- Cc1c(O)nc(-n2[nH]c3c(c2=O)CCCC3)[nH]c1=O: > 100 µM (inactive)

* * *

Tested on: U-251
assayProcedure: NCI tumour cell line growth inhibition, 48 h
Activity calls are given as the source filed them. Cut-off read from the data, not from the text of the source: active = GI50 up to about 1.1 µM and inactive = higher.
Outcomes: YES for active, NO for inactive

- C/C(=N\N=C1/C(=O)OC(c2ccccc2)=C1C(=O)c1ccccc1)c1ccc([N+](=O)[O-])cc1: NO
- CCNC(=O)NNc1ncnc2c1c(-c1ccc(Cl)cc1)cn2-c1ccc(C)cc1: NO
- CCN(CC)C1=Nc2ccccc2-n2ccnc2C1: NO
- COc1cc(OCCN(C)C)c2[nH]c(C(=O)N3CC(CCl)c4c3cc(N)c3ccccc43)cc2c1 (stereo unspecified): YES
- CC1(C)CC[C@]2(C)CC=C3[C@]4(C)CC[C@H]5C(C)(C)C(=O)CC[C@]5(C)[C@H]4CC[C@@]3(C)[C@H]2C1: NO
- COc1cccc(C2CC23C(=O)NC(=O)NC3=O)c1 (stereo unspecified): NO
- CC12CC(C/C1=N/O)C(C)(C)C2 (stereo unspecified): NO
- COc1ccc(/N=C2\C(=O)Nc3ccc(Br)cc32)cc1: NO
- Clc1ccc(C2SCc3nc4ccccc4n32)cc1Cl (stereo unspecified): NO
- Cc1ccc(C2=Nc3c(N)nc(N)nc3NC(c3ccccc3)C2)cc1 (stereo unspecified): NO
- Cn1c(-c2cccs2)cc(-c2ccsc2)c1-c1ccsc1: NO
- COc1ccc(-n2cnn3c(=O)c4cn[nH]c4nc23)cc1: NO
- CNC(=O)OCc1c2ccncc2c(C)c2c1[nH]c1ccccc12: YES
- COC(=O)c1ccccc1/C=C1\Cc2ccc3c(c2C1=O)CCC3: NO
- Cc1ccc(S(=O)(=O)N/N=C/c2c(O)ccc3ccccc23)cc1: NO
- COC1=CC(=O)c2c(O)c3c(c(O)c2C1=O)OC1(Oc2c(cc4cc(C)oc(=O)c4c2O)CC1O)C3O (stereo unspecified): NO

These entries and their values trace back to ChEMBL document CHEMBL1201862.
